system: HOP-62 NSCLC; assay: NCI tumour cell line growth inhibition, 48 h; in the data active = GI50 below about 0.43 µM; inactive = the rest
Give one outcome, nothing more. List: class 1 (active), class 0 (inactive)

Input line: # lookup: test call for `O=C(Nc1ccc(N2CCNCC2)cn1)c1[nH]ncc1Nc1ncnc2sccc12`
Output line: class 0

Input line: # lookup: test call for `O=S(=O)(NCCNc1cc(-c2cn(-c3ccccc3)nc2-c2cccc(O)c2)ccn1)c1ccc(Br)cc1`
Output line: class 0

Input line: # lookup: test call for `COc1ccc2c(c1)c(-c1ccc(-c3cn(C)c4ccc(OC)cc34)o1)cn2C`
Output line: class 0

Input line: # lookup: test call for Clc1ccc(COC(Cn2ccnc2)c2ccc(Cl)cc2Cl)c(Cl)c1 (stereo not given)
Output line: class 0

Input line: # lookup: test call for `CCN(CC)CCOc1ccc(Cc2ccccc2)cc1`
Output line: class 0

Input line: # lookup: test call for COC1C(O)CC(OC2CC(OC3CC(O[C@@H]4C(=O)c5c(cc6cc(OC7CC(OC8CC(O)C(O)C(C)O8)C(O)C(C)O7)c(C)c(O)c6c5O)CC4[C@H](OC)[C@@H](O)C(C)=O)OC(C)C3O)OC(C)C2O)OC1C (stereo not given in full)
Output line: class 1

Input line: # lookup: test call for `CCN(CC)c1ccc(/C=N/NC(=O)c2ccccc2Nc2ccnc(C(F)(F)F)c2)c(O)c1`
Output line: class 1

Input line: # lookup: test call for `C[C@@]1(O)CCC[C@H]1n1c(=O)c(C(F)F)cc2cnc(NC3CCN(S(C)(=O)=O)CC3)nc21`
Output line: class 0

Input line: # lookup: test call for `C#CCN(Cc1nc2cc(C(F)(F)F)ccc2nc1-c1ccccc1)c1ccc(F)cc1`
Output line: class 0

Input line: # lookup: test call for CCCCCCC(O)C(O)CCC(O)C1CCC(CCCCC(O)CC2=CC(C)OC2=O)O1 (stereo not given)
Output line: class 0

Input line: # lookup: test call for C=C(C)[C@@H]1CC[C@]2(CN)CC[C@]3(C)[C@H](CC[C@@H]4[C@@]5(C)CCC(N)[C@@](C)(CO)[C@@H]5CC[C@]43C)[C@@H]12 (stereo not given in full)
Output line: class 0

Input line: # lookup: test call for CSC1SCC2C(=O)N(C)C(C(C)C)C(=O)OCC(NC(=O)c3cnc4ccccc4n3)C(=O)NC(C)C(=O)N(C)C1C(=O)N(C)C(C(C)C)C(=O)OCC(NC(=O)c1cnc3ccccc3n1)C(=O)NC(C)C(=O)N2C (stereo not given)
Output line: class 1

Input line: # lookup: test call for `N.N.NCCCCCN.O=C([O-])CC(=O)[O-].O=C([O-])CC(=O)[O-].[Pt+4].[Pt+4]`
Output line: class 0

Input line: # lookup: test call for `COc1c(Cl)[c]([Hg][O]C(C)=O)c(NCC(C)=O)c(OC)[c]1[Hg][O]C(C)=O`
Output line: class 0

Input line: # lookup: test call for O=C1CCC(N2C(=O)c3cccc(NCCOCCOCCNC(=O)c4cc5c(o4)C(=O)c4ccccc4C5=O)c3C2=O)C(=O)N1 (stereo not given)
Output line: class 0

====

test system: EKVX NSCLC; assay: NCI tumour cell line growth inhibition, 48 h
Where a SMILES comes first, the peptide text is derived from it. [ ]: non-standard residue; d: D form. The star is where a group is joined. ξ: configuration not given here. ξPhe(4-NO2) = NC(Cc1ccc([N+](=O)[O-])cc1)C(=O)O; Boc = CC(C)(C)OC(=O)*
Quantity: TGI

Input line: Provide measured TGI on EKVX NSCLC for `CCOc1ccc(N=Cc2ccc3ccccc3n2)cc1` please.
Output line: > 100 µM

Input line: Provide measured TGI on EKVX NSCLC for `COC(=O)c1ccc(/C=C/S(=O)(=O)c2ccccc2)cc1` please.
Output line: > 100 µM

Input line: Provide measured TGI on EKVX NSCLC for CC(C)=CCC/C(C)=C/CC/C(C)=C/C1CCC(=O)C1(C)C (configuration not stated) please.
Output line: 42.4 µM

Input line: Provide measured TGI on EKVX NSCLC for `COc1ccc(C(=O)N(Cc2cccnc2)C(=S)N(Cc2cccnc2)C(=O)c2ccc(OC)cc2)cc1` please.
Output line: > 100 µM

Input line: Provide measured TGI on EKVX NSCLC for `S=C(S)N1CCN(c2ccccc2)CC1` please.
Output line: > 100 µM

Input line: Provide measured TGI on EKVX NSCLC for `COc1cc2ccc3c4cc(OC)c(OC(C)C)cc4c[n+](C)c3c2cc1OC` please.
Output line: > 100 µM

Input line: Provide measured TGI on EKVX NSCLC for `Cc1ccc(N2C3=C(CC4=C2CC(C)(C)CC4=O)C(=O)CC(C)(C)C3)cc1` please.
Output line: > 100 µM

Input line: Provide measured TGI on EKVX NSCLC for CC1=CC2=C(C#N)C(=O)OC2(C)C(c2ccccc2)C1 (configuration not stated) please.
Output line: > 100 µM

Input line: Provide measured TGI on EKVX NSCLC for `ClCCc1ccccc1CC1=NCCc2ccccc21` please.
Output line: > 100 µM

Input line: Provide measured TGI on EKVX NSCLC for `Nc1nc(Cl)c(C=O)c(NCC2(CO)CCC2)n1` please.
Output line: 46.9 µM

Input line: Provide measured TGI on EKVX NSCLC for `CCCc1n(Cc2ccc3ccccc3n2)cc[n+]1Cc1ccc2ccccc2c1` please.
Output line: 14.9 µM

Input line: Provide measured TGI on EKVX NSCLC for `CCC(C)(C)NS(=O)(=O)c1ccccc1` please.
Output line: > 100 µM

Input line: Provide measured TGI on EKVX NSCLC for `C(#C[C@@]12CCC[C@@H]1N(Cc1ccccc1)CO2)c1ccc2c(c1)OCO2` please.
Output line: > 100 µM

Input line: Provide measured TGI on EKVX NSCLC for NC(Cc1c[nH]c2cc(F)ccc12)C(=O)O (configuration not stated) please.
Output line: > 2500 µM

Input line: Provide measured TGI on EKVX NSCLC for `Fc1ccc2c(c1)cc1ccc3cccc4ccc2c1c34` please.
Output line: > 100 µM

Input line: Provide measured TGI on EKVX NSCLC for `Cc1ccc(-n2c3c(c4c(CN)c(O)ccc42)CCc2ccccc2C3=O)cc1` please.
Output line: 28.5 µM

Input line: Provide measured TGI on EKVX NSCLC for `CCCCCN(CCCCC)C(=O)[C@H](CCC(=O)OCc1ccccc1)NC(=O)c1cc2ccccc2[nH]1` please.
Output line: > 100 µM

Input line: Provide measured TGI on EKVX NSCLC for CCNC(=O)CNC(=O)C(Cc1ccc([N+](=O)[O-])cc1)NC(=O)OC(C)(C)C (configuration not stated) (Boc-[ξPhe(4-NO2)]-Gly-NHEt) please.
Output line: > 100 µM

Input line: Provide measured TGI on EKVX NSCLC for `NC(N)=NC(N)=Nc1ccc(S(N)(=O)=O)cc1` please.
Output line: > 100 µM

Input line: Provide measured TGI on EKVX NSCLC for COc1cc(C2SCC(=O)N2NC(=O)c2ccc(NC(C)=O)cc2OC)ccc1O (configuration not stated) please.
Output line: > 100 µM

Input line: Provide measured TGI on EKVX NSCLC for CCOC(=O)C(=O)C(/C(=N/N(C)C)C(=O)Nc1ccc(C)cc1C)c1nc2ccccc2[nH]c1=O (configuration not stated) please.
Output line: > 100 µM

Input line: Provide measured TGI on EKVX NSCLC for COc1c(N2CCN(CN3C(=O)C(=O)c4ccccc43)C(C)C2)c(F)cc2c(=O)c(C(=O)O)cn(C3CC3)c12 (configuration not stated) please.
Output line: > 100 µM

====

Please provide measured log10 of TGI for the entries that follow.
system: SK-MEL-5 melanoma; assay: NCI tumour cell line growth inhibition, 48 h
// do not treat as linear: log10 of TGI, unit µM

Input line: Given `ClCCc1ccccc1CC1=NCCc2ccccc21` , respond with its log10 of TGI.
Output line: 1.68

Input line: Given OC1(C2(c3ccc(Cl)cc3)CCCC2)c2ccccc2C2=NCCN21 (stereo unspecified) , respond with its log10 of TGI.
Output line: 1.40

Input line: Given `COc1ccc(-c2cc(-c3ccc(Cl)cc3)nc(SCCCCCCC(=O)NO)n2)cc1` , respond with its log10 of TGI.
Output line: 0.40

Input line: Given COc1ccc2c(c1OC)C(C=C(c1ccccc1)c1ccccc1)CN(C)C2 (stereo unspecified) , respond with its log10 of TGI.
Output line: 1.47

Input line: Given `C[C@@H]1OC(=O)NN=C1c1ccc(-c2ccc(F)cc2)c(C(F)(F)F)c1` , respond with its log10 of TGI.
Output line: 0.95

Input line: Given `Cc1nc(-n2nc(-c3ccccc3)cc2-c2ccccc2)sc1C(=O)/C=C/c1ccc(Cl)cc1` , respond with its log10 of TGI.
Output line: 1.49
